Reported ED50 values for the following molecules.
Tested on: Rattus norvegicus
assay.protocol: Dose required for inhibition of isoproterenol-induced tachycardia in pithed rat after intravenous administration
Format: functional
measured.parameter: ED50 (mg/kg)

# molecule, system, measured.value
measured = [
    ("Cc1cc(/C=C/c2ccccc2OCC(O)CNC(C)CCc2ccc(O)cc2)on1 (stereo unspecified)", "Rattus norvegicus", 0.011),
    ("Cc1cc(/C=C/c2ccccc2OCC(O)CNC(C)C)on1 (stereo unspecified)", "Rattus norvegicus", 0.006),
    ("COCc1cc(/C=C/c2ccccc2OCC(O)CNC(C)C)on1.Cl (stereo unspecified)", "Rattus norvegicus", 0.0064),
    ("Cc1noc(/C=C/c2ccccc2OCC(O)CNC(C)(C)C)c1Cl (stereo unspecified)", "Rattus norvegicus", 0.014),
    ("Cc1cc(/C=C/c2ccccc2OCC(O)CNC(C)(C)C)on1.Cl (stereo unspecified)", "Rattus norvegicus", 0.0088),
    ("Cc1cc(/C=C/c2ccccc2OCC(O)CNC2CC2)on1 (stereo unspecified)", "Rattus norvegicus", 0.0091),
]

----------
Reported ED50 values for the following compounds.
Test system: Rattus norvegicus
assay.protocol: Dose required for inhibition of isoproterenol-induced tachycardia in pithed rat after intravenous administration
Assay type: functional

# compound, ED50 / mg/kg
measured = [
    ("CC(CCc1ccccc1)NCC(O)c1ccc(O)c(C(N)=O)c1 (stereo unspecified)", 0.14),
    ("COCc1cc(/C=C/c2ccccc2OCC(O)CNC(C)(C)C)on1.Cl (stereo unspecified)", 0.0074),
    ("CC(C)NCC(O)COc1ccccc1/C=C/c1cc(Cl)no1 (stereo unspecified)", 0.0464),
    ("Cc1cc(/C=C/c2ccccc2OCC(O)CNC(C)C)no1.Cl (stereo unspecified)", 0.0034),
    ("Cc1cc(C=Cc2ccccc2OCC(O)CNC(C)(C)C)no1.Cl (stereo unspecified)", 0.013),
]

----------
System: Rattus norvegicus
assay.protocol: Dose required for inhibition of isoproterenol-induced tachycardia in pithed rat after intravenous administration
Type: functional
measured.parameter: ED50

# molecule, measured.value
records = [
    ("Cc1cc(/C=C/c2ccccc2OCC(O)CNC(C)(C)CCc2ccc(O)cc2)on1 (stereo not given)", "~0.0215 mg/kg"),
    ("COc1ccc(CCC(C)(C)NCC(O)COc2ccccc2/C=C/c2cc(C)no2)cc1 (stereo not given)", "~0.215 mg/kg"),
    ("COCc1cc(/C=C/c2ccccc2OCC(O)CNC2CC2)on1 (stereo not given)", "~0.01 mg/kg"),
    ("CCc1cc(/C=C/c2ccccc2OCC(O)CNC(C)(C)C)on1.Cl (stereo not given)", "~0.0215 mg/kg"),
    ("Cc1cc(/C=C/c2ccccc2OCC(O)CNC(C)CCc2ccccc2)on1 (stereo not given)", "~0.0464 mg/kg"),
]

----------
Test system: Rattus norvegicus
assay.protocol: Dose required for inhibition of isoproterenol-induced tachycardia in pithed rat after intravenous administration
Assay type: functional
Reported ED50 values for the following compounds.
measured.parameter: ED50

# compound, measured.value
records = [
    ("Cc1noc(/C=C/c2ccccc2OCC(O)CNC(C)(C)C)c1[N+](=O)[O-] (stereo unspecified)", "~0.0681 mg/kg"),
    ("CC(C)(C)NCC(O)COc1ccccc1/C=C/c1cc(C(C)(C)C)no1.Cl (stereo unspecified)", "~0.0215 mg/kg"),
    ("C#CC(C)(C)NCC(O)COc1ccccc1/C=C/c1cc(C)no1.Cl (stereo unspecified)", "~0.0681 mg/kg"),
    ("CCc1cc(/C=C/c2ccccc2OCC(O)CNC(C)C)on1.Cl (stereo unspecified)", "~0.0215 mg/kg"),
    ("COc1ccc(CC(C)NCC(O)COc2ccccc2/C=C/c2cc(C)no2)cc1OC (stereo unspecified)", "~0.464 mg/kg"),
    ("Cc1noc(/C=C/c2ccccc2OCC(O)CNC(C)(C)C)c1C (stereo unspecified)", "~0.0215 mg/kg"),
]
